The values you see were collected from ChEMBL document CHEMBL1201862.

system: HL-60; test: NCI tumour cell line growth inhibition, 48 h
Active and inactive are the calls of the source. No stated cut-off is given here; in the data, active = GI50 up to about 1.1 µM and inactive = higher.
Please answer using one outcome listed in Yes for active, No for inactive

{"compound": "O=[As](O)(O)c1ccc(/N=N/c2ccc(O)cc2)cc1", "classification": "No"}
{"compound": "O=C(O)CSCC(=O)O", "classification": "No"}
{"compound": "COc1ccc(/C=C2\\C(=O)Nc3ccccc32)cc1OC", "classification": "No"}

Request: Fill in: this test's call for C=CC[C@@]1(OC(C)=O)C(=O)C(=O)OC1C1COC(C)(C)O1 (some centres not stated) is ___
Response: No

Request: Subsequent entry: "Nc1ccc2ccc(N3CCNCC3)nc2n1"
Response: No

Request: Consider next the compound CC1N(O)C(c2ccccc2)C(c2ccccc2)=[N+]1[O-] (configuration not stated) in the same way.
Response: No

Request: Further, for "CC[N+](C)(CC)CCN1C(=O)c2ccccc2S1(=O)=O" ?
Response: No

###

tested on: Malme-3M; assay: NCI tumour cell line growth inhibition, 48 h
Activity calls are given as the source filed them. Rule as the data show it: active = GI50 up to about 1.1 µM and inactive = higher.
Respond using exactly one of the listed classes: active, inactive

Request: Please share the test call associated with "COCCOC(=O)NCn1cc(-c2ccccc2)nn1" .
Response: inactive

Request: Entry to check: "O=C1CCc2c(sc3ncnc(Nc4cccc(Br)c4)c23)C1"
Response: inactive

Request: Also "O=C(NCc1cccc(C(F)(F)F)c1)c1cc2sccc2nc1C(F)(F)F" , if possible.
Response: inactive

###

system: NCI-H23; experiment: NCI tumour cell line growth inhibition, 48 h
Activity calls are given as the source filed them. Rule as the data show it: active = GI50 up to about 1.1 µM and inactive = higher. Starred links: 1 amine or outer side, 2 acyl side, 3 side chain; linkers in the order of their positions; H or OH if unused. Non-standard residues stand in square brackets, D forms with d. Residues, ends and D or L forms follow the SMILES beside them. X35 = C=CCC(O[*:1])C(=O)[*:2]; NMeV = CN[CH](C(=O)O)C(C)C; NMeA = CN[CH](C)C(=O)O; βAla = NCCC(=O)O
Attribute: GI50

Worked examples, 8 compounds total:
{"compound": "N#Cc1ccccc1NC(=O)/C(=N\\Nc1ccc([N+](=O)[O-])cc1)C1C(=O)NC(=O)NC1=O", "GI50": "> 100 µM (inactive)"}
{"compound": "NNC(=O)CC(=O)Nc1ccccc1F", "GI50": "> 100 µM (inactive)"}
{"compound": "Cc1cn([C@@H]2O[C@H](CO)[C@@H](O)[C@@H]2O)c(=O)[nH]c1=O", "GI50": "> 1000 µM (inactive)"}
{"compound": "O=C(/C=C/c1ccc(Cl)c(Cl)c1)c1ccc2ccccc2c1", "GI50": "> 100 µM (inactive)"}
{"compound": "CCn1c(C)nc([N+](=O)[O-])c1Sc1ncc[nH]1", "GI50": "29.9 µM (inactive)"}
{"compound": "CC1N(O)C(c2ccccc2)C(c2ccccc2)=[N+]1[O-] (centres undefined)", "GI50": "> 100 µM (inactive)"}
{"compound": "COC(=O)[C@@H](Cc1ccccc1)NNC(=O)OC(C)(C)C", "GI50": "> 100 µM (inactive)"}
{"compound": "S=c1nc(N/N=C/c2cccs2)c2cn[nH]c2[nH]1", "GI50": "21.2 µM (inactive)"}

Now consider the entry below.
Request: Recorded GI50 of C=CCC1OC(=O)CCNC(=O)C(C)N(C)C(=O)C(C(C)C)N(C)C(=O)C(C(C)CC)NC(=O)C2CCCN2C1=O (centres undefined) (cyclo([X35]PI[NMeV][NMeA][βAla]); configuration not given here) , please.
Response: 33.2 µM (inactive)

###

test system: MOLT-4; experiment: NCI tumour cell line growth inhibition, 48 h
Calls of active or inactive are those of the source. Rule as the data show it: active = GI50 up to about 1.1 µM and inactive = higher.
Output constraint: value belongs to yes for active, no for inactive

Request: Could you kindly confirm the outcome this assay logged for COC(=O)c1ccccc1C1CN=NC12Cc1cc(C)cc(C)c1C2=O (centres undefined) ?
Response: no

Request: What do you have for CN1CCC23c4c5ccc(Oc6nnnn6-c6ccccc6)c4OC2c2[nH]c4ccccc4c2CC3(O)C1C5 (centres undefined) ?
Response: no

Request: Do the same for CC(CSc1nc2c(c(=N)n1-c1ccccc1)c(=S)n(-c1ccccc1)c(=S)n2-c1ccccc1)CN(C)C (centres undefined) please
Response: yes

Request: Let us now turn to "Cc1[nH]c2ncn(Nc3ccccc3)c(=N)c2c1Cc1ccccc1"
Response: no

Request: What do you have for COC1=C(C)C(=O)c2c(c(COC(N)=O)c3n2CC(OC(C)=O)C3OC(C)=O)C1=O (centres undefined) ?
Response: yes

Request: Let us now turn to NCC1OC(OC2C(N)CC(N)C(O)C2OC2OC(CO)C(O)C2O)C(N)C(O)C1O (centres undefined)
Response: no

Request: How about this compound: "COc1ccc2nc(NC(=O)C(=O)CC(=O)c3ccc([N+](=O)[O-])cc3)sc2c1"
Response: no

Request: Next compound: C=CCC12CCC(=O)[C@@]1(C)CC=C(O)C2=O (some centres undefined)
Response: no

Request: "CC(=O)NNc1nc(C)c(C(/C=C/c2ccccc2O)=N/N=C(N)N)s1" , same question.
Response: no

Request: Similarly, "Nc1ccccc1C(=O)N/N=C1\C(=O)Nc2ccccc21" ?
Response: no

Request: Please give the result for Cc1ccc([S+](c2ccccc2)c2cc(C)ccc2C)cc1.O=C(OC(C(=O)[O-])C(OC(=O)c1ccccc1)C(=O)O)c1ccccc1 (centres undefined) too.
Response: no

Request: Item: CN(C)c1ccc(C2CC(=O)C(C#N)=C(c3ccccc3)NN2C)cc1 (centres undefined)
Response: no

###

system: DMS-273; experiment: NCI tumour cell line growth inhibition, 48 h
Active and inactive are the calls of the source. Rule as the data show it: active = GI50 up to about 1.1 µM and inactive = higher.
# output must be one of label 1 (active), label 0 (inactive)

Request: Please indicate how the test categorized CCOC(=O)C12CCCC1(O)N(NC(N)=O)C(C)=C2C(=O)OC (centres undefined) .
Response: label 0

###

As shown below, each of these molecules has a reported GI50 value.
tested on: LOX IMVI; test: NCI tumour cell line growth inhibition, 48 h
Calls of active or inactive are those of the source. Cut-off read from the data, not from the text of the source: active = GI50 up to about 1.1 µM and inactive = higher.

{"molecule": "CN(Cc1cnc2nc(N)nc(N)c2n1)c1ccc(C(=O)NCCS(=O)(=O)O)cc1", "GI50": "> 100 µM (inactive)"}
{"molecule": "CC[N+](C)(CC)CCN1C(=O)c2ccccc2S1(=O)=O", "GI50": "> 100 µM (inactive)"}
{"molecule": "COC1=CC(=O)C[C@@H](C)[C@]12Oc1c(Cl)c(OC)cc(OC)c1C2=O [GRISEOFULVIN]", "GI50": "18.7 µM (inactive)"}
{"molecule": "COC(=O)C1(C(=O)OC)CC2=C(S(=O)(=O)c3ccccc3)C[C@H](S(=O)(=O)c3ccccc3)[C@H]2C1", "GI50": "> 100 µM (inactive)"}
{"molecule": "CN(c1ccccc1Cl)S(=O)(=O)c1ccccc1", "GI50": "> 100 µM (inactive)"}

Request: Using the record for O=C=NCCCCCCN1C(=O)N2C(c3ccccc3)N(CCCCCCN=C=O)C(=O)N2C1c1ccccc1 (centres undefined) , report its GI50.
Response: > 100 µM (inactive)

Request: Then this molecule: CC(C)(C)NCCC(O)c1cc(C(F)(F)F)nc2c(C(F)(F)F)cccc12 (centres undefined)
Response: 1.12 µM (inactive)

Request: Moving on to the next molecule: "NC(=O)NC(=O)c1cccc(C(=O)NC(N)=O)n1"
Response: > 100 µM (inactive)

Request: Thanks! And "O=[N+]([O-])c1cc2oc(CSc3ccccc3)nc2cc1Cl" ?
Response: 35.3 µM (inactive)

Request: For NC(=O)CC1OC(=O)Cc2cc3c(c(O)c21)C(=O)c1c(O)cccc1C3=O (centres undefined) then?
Response: > 100 µM (inactive)

Request: Now consider O=c1nc(NC2CCCCO2)ccn1CCO (centres undefined) .
Response: > 100 µM (inactive)

Request: Follow-up item: "c1ccc(C/C(=N\Nc2nc3ccccc3[nH]2)c2ccccn2)cc1"
Response: 0.119 µM (active)

Request: Now the same for "Cn1ncc2c(Cl)ncnc21"
Response: > 100 µM (inactive)

Request: Entry "O=c1[nH]nc(Cc2ccc([N+](=O)[O-])cc2)n1CCO" please
Response: > 100 µM (inactive)

Request: Also check "COC(=O)[C@@H](Cc1ccccc1)NNC(=O)OC(C)(C)C"
Response: > 100 µM (inactive)

Request: Next up: CC1=CCC23C(C1)OC(Br)(C=CC2(C)O)C3(C)C (centres undefined)
Response: > 100 µM (inactive)

Request: Same thing, different molecule: "COC(=O)C(CCCCN)NC(=O)C(CCCCN)NC(=O)C(CCCCN)NC(C)=O.Cc1ccc(C(=O)Nc2ccc(S(=O)(=O)O)c3cc(S(=O)(=O)O)cc(S(=O)(=O)O)c23)cc1NC(=O)c1cccc(NC(=O)Nc2cccc(C(=O)Nc3cc(C(=O)Nc4ccc(S(=O)(=O)O)c5cc(S(=O)(=O)O)cc(S(=O)(=O)O)c45)ccc3C)c2)c1"
Response: > 50 µM (inactive)

Request: What about Cc1ccc([S+](c2ccccc2)c2cc(C)ccc2C)cc1.O=C(OC(C(=O)[O-])C(OC(=O)c1ccccc1)C(=O)O)c1ccccc1 (centres undefined) ?
Response: 6.85 µM (inactive)

Request: Now try "CCc1n[nH]c(=O)n1/N=C/c1c(O)ccc2ccccc12" .
Response: > 100 µM (inactive)
